- protocol_description: Singlet oxygen quantum yield and lifetime (1270 nm phosphorescence)
- Type: physicochemical
- test_conditions: air-saturated ethanol, phenalenone as reference
reported_property: ΦΔ (singlet oxygen quantum yield)

1. O=S(=O)(O)c1ccc(Cl)c(-c2c3nc(c(-c4cc(S(=O)(=O)O)ccc4Cl)c4ccc([nH]4)c(-c4cc(S(=O)(=O)O)ccc4Cl)c4nc(c(-c5cc(S(=O)(=O)O)ccc5Cl)c5ccc2[nH]5)CC4)CC3)c1 [Luzitin-Cl]
0.43
2. CCNS(=O)(=O)c1ccc(Cl)c(-c2c3nc(c(-c4c(Cl)ccc(S(=O)(=O)NCC)c4Cl)c4ccc([nH]4)c(-c4c(Cl)ccc(S(=O)(=O)NCC)c4Cl)c4nc(c(-c5c(Cl)ccc(S(=O)(=O)NCC)c5Cl)c5ccc2[nH]5)CC4)CC3)c1Cl [Luzitin-Cl2Et]
0.66
3. CNS(=O)(=O)c1ccc(F)c(-c2c3nc(c(-c4cc(S(=O)(=O)NC)ccc4F)c4ccc([nH]4)c(-c4cc(S(=O)(=O)NC)ccc4F)c4nc(c(-c5cc(S(=O)(=O)NC)ccc5F)c5ccc2[nH]5)CC4)CC3)c1 [Luzitin-FMet]
0.71

---

Below, each entry is listed alongside its reported τT (air) triplet lifetime.
- protocol_description: Triplet lifetime by laser flash photolysis
- Type: physicochemical
- test_conditions: air-saturated ethanol
reported_property: τT (air) triplet lifetime (nsec)

1. CCCCCCCNS(=O)(=O)c1ccc(Cl)c(-c2c3nc(c(-c4c(Cl)ccc(S(=O)(=O)NCCCCCCC)c4Cl)c4ccc([nH]4)c(-c4c(Cl)ccc(S(=O)(=O)NCCCCCCC)c4Cl)c4nc(c(-c5c(Cl)ccc(S(=O)(=O)NCCCCCCC)c5Cl)c5ccc2[nH]5)CC4)CC3)c1Cl
295
2. CCNS(=O)(=O)c1ccc(Cl)c(-c2c3nc(c(-c4c(Cl)ccc(S(=O)(=O)NCC)c4Cl)c4ccc([nH]4)c(-c4c(Cl)ccc(S(=O)(=O)NCC)c4Cl)c4nc(c(-c5c(Cl)ccc(S(=O)(=O)NCC)c5Cl)c5ccc2[nH]5)CC4)CC3)c1Cl
265
3. O=S(=O)(O)c1ccc(Cl)c(-c2c3nc(c(-c4c(Cl)ccc(S(=O)(=O)O)c4Cl)c4ccc([nH]4)c(-c4c(Cl)ccc(S(=O)(=O)O)c4Cl)c4nc(c(-c5c(Cl)ccc(S(=O)(=O)O)c5Cl)c5ccc2[nH]5)CC4)CC3)c1Cl
226
4. O=S(=O)(O)c1ccc(Cl)c(-c2c3nc(c(-c4cc(S(=O)(=O)O)ccc4Cl)c4ccc([nH]4)c(-c4cc(S(=O)(=O)O)ccc4Cl)c4nc(c(-c5cc(S(=O)(=O)O)ccc5Cl)c5ccc2[nH]5)CC4)CC3)c1
240

---

- protocol_description: Singlet oxygen quantum yield and lifetime (1270 nm phosphorescence)
- Format: physicochemical
- test_conditions: air-saturated ethanol, phenalenone as reference
Quick reference for ΦΔ (singlet oxygen quantum yield) among some compounds
reported_property: ΦΔ (singlet oxygen quantum yield)

1. CCCCCCCNS(=O)(=O)c1ccc(Cl)c(-c2c3nc(c(-c4c(Cl)ccc(S(=O)(=O)NCCCCCCC)c4Cl)c4ccc([nH]4)c(-c4c(Cl)ccc(S(=O)(=O)NCCCCCCC)c4Cl)c4nc(c(-c5c(Cl)ccc(S(=O)(=O)NCCCCCCC)c5Cl)c5ccc2[nH]5)CC4)CC3)c1Cl
0.63
2. O=S(=O)(O)c1ccc(Cl)c(-c2c3nc(c(-c4c(Cl)ccc(S(=O)(=O)O)c4Cl)c4ccc([nH]4)c(-c4c(Cl)ccc(S(=O)(=O)O)c4Cl)c4nc(c(-c5c(Cl)ccc(S(=O)(=O)O)c5Cl)c5ccc2[nH]5)CC4)CC3)c1Cl
0.85

---

- protocol_description: Fluorescence quantum yield
- Type: physicochemical
- test_conditions: ethanol
The following compounds are listed with their measured ΦF (fluorescence quantum yield) values.
reported_property: ΦF (fluorescence quantum yield)

1) CNS(=O)(=O)c1ccc(F)c(-c2c3nc(c(-c4cc(S(=O)(=O)NC)ccc4F)c4ccc([nH]4)c(-c4cc(S(=O)(=O)NC)ccc4F)c4nc(c(-c5cc(S(=O)(=O)NC)ccc5F)c5ccc2[nH]5)CC4)CC3)c1
0.0589
2) O=S(=O)(O)c1ccc(Cl)c(-c2c3nc(c(-c4c(Cl)ccc(S(=O)(=O)O)c4Cl)c4ccc([nH]4)c(-c4c(Cl)ccc(S(=O)(=O)O)c4Cl)c4nc(c(-c5c(Cl)ccc(S(=O)(=O)O)c5Cl)c5ccc2[nH]5)CC4)CC3)c1Cl
0.0062
3) CN(C)S(=O)(=O)c1ccc(F)c(-c2c3nc(c(-c4cc(S(=O)(=O)N(C)C)ccc4F)c4ccc([nH]4)c(-c4cc(S(=O)(=O)N(C)C)ccc4F)c4nc(c(-c5cc(S(=O)(=O)N(C)C)ccc5F)c5ccc2[nH]5)CC4)CC3)c1
0.0585
4) CCNS(=O)(=O)c1ccc(Cl)c(-c2c3nc(c(-c4c(Cl)ccc(S(=O)(=O)NCC)c4Cl)c4ccc([nH]4)c(-c4c(Cl)ccc(S(=O)(=O)NCC)c4Cl)c4nc(c(-c5c(Cl)ccc(S(=O)(=O)NCC)c5Cl)c5ccc2[nH]5)CC4)CC3)c1Cl
0.0081
5) CCCCCCCNS(=O)(=O)c1ccc(Cl)c(-c2c3nc(c(-c4c(Cl)ccc(S(=O)(=O)NCCCCCCC)c4Cl)c4ccc([nH]4)c(-c4c(Cl)ccc(S(=O)(=O)NCCCCCCC)c4Cl)c4nc(c(-c5c(Cl)ccc(S(=O)(=O)NCCCCCCC)c5Cl)c5ccc2[nH]5)CC4)CC3)c1Cl
0.0082
6) O=S(=O)(O)c1ccc(Cl)c(-c2c3nc(c(-c4cc(S(=O)(=O)O)ccc4Cl)c4ccc([nH]4)c(-c4cc(S(=O)(=O)O)ccc4Cl)c4nc(c(-c5cc(S(=O)(=O)O)ccc5Cl)c5ccc2[nH]5)CC4)CC3)c1
0.0403
